target: human fractalkine receptor (hCX3CR1) (Homo sapiens); construct: expressed in transfected cells; host or cells: HEKS 293 (human embryonic kidney suspension) cells stably expressing the chimeric G-protein Gαqi5; Membranes were used in the assay; test: Ligand binding assay (competition binding with [125I]-fractalkine on cell membranes)
Sequence (P49238 whole entry): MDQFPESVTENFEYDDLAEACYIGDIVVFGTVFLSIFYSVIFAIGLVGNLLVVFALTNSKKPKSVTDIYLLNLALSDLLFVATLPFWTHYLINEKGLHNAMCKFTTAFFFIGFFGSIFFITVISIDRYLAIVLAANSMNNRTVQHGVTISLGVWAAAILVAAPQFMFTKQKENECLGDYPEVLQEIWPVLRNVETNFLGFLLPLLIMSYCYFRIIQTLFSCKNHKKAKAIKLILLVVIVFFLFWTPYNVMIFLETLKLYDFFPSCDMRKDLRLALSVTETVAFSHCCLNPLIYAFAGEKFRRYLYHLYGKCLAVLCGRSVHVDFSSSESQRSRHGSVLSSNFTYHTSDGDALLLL
measuredParameter: Ki (µM)
Record the value in µM, omitting the unit from your answer.

Let me know recorded Ki for `CC(C)C[C@H](CO)Nc1nc(OCc2ccccc2)[nH]c2nc(=O)sc1-2` , thanks.
0.0446

====

assay: Solubility assay (0.1M phosphate buffer, pH 7.4, 24 hours); format: physicochemical; details: 21 °C, aqueous buffer, kinetic from dmso stock, 100 μM from DMSO stock in 0.1M phosphate buffer, pH 7.4, room temperature, upper limit 100 μM, LOQ 0.1 μM
solubility at 24 h values by entry
Record the value in µM, omitting the unit from your answer.

Example molecules with recorded solubility at 24 h:
COc1cccc(COc2nc(N[C@@H](CO)CC(C)C)c3sc(=O)[nH]c3n2)c1; 78.5
CC(C)C[C@H](CO)Nc1nc(OCCc2ccccc2)nc2nc(N)sc12; 63.6

Next, consider the following molecule.
Let me know recorded solubility at 24 h for CC(C)[C@H](CO)Nc1nc(SCc2ccccc2)nc2[nH]c(=O)sc12 [drawing 21 X = S, reference compound] , thanks.
8.5

# credit: patent US20070142386A1
